property label: melting point

Known results for molecules:
| given smiles | property label | reading |
| --- | --- | --- |
| CNC(=O)Cn1nc(Nc2cccc(F)c2)cc1-c1ccc2c(c1)OCCO2 | melting point | 189.5 to 194 °C |
| CNC(=O)Cn1nc(Nc2ccc3c(c2)OC(F)(F)O3)cc1-c1ccc2c(c1)OCCO2 | melting point | 171.5 to 171.8 °C |
| CNC(=O)Cn1nc(Nc2ccc(F)cc2)cc1-c1ccc2c(c1)OCCO2 | melting point | 169.9 to 177.3 °C |
| CNC(=O)Cn1nc(Nc2ccc(F)c(F)c2)cc1-c1ccc2c(c1)OCCO2 | melting point | 189.5 to 194.5 °C |

Query molecule follows.
Quote melting point reported for `CN(C)C(=O)CCn1nc(Nc2ccc(F)cc2)cc1-c1ccc2c(c1)OCCO2` please.
141.6 to 143.2 °C

---

- target under test: hα7-wt nAChR (Homo sapiens, UniProt P36544)
- Construct: expressed in transfected cells
- Sequence (P36544 23-502): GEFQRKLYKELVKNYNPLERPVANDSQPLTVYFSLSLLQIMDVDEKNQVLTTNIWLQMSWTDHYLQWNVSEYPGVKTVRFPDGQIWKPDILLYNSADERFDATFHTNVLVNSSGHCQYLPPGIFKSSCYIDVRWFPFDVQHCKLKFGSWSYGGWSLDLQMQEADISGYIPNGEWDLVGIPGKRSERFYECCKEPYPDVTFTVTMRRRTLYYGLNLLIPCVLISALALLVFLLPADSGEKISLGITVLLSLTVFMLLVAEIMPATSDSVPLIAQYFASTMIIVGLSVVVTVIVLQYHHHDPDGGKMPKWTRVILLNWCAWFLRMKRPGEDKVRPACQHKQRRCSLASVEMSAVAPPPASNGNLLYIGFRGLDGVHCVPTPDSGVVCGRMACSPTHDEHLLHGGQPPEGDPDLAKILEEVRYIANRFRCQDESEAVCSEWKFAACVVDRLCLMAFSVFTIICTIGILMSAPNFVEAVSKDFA
- method summary: Ca2+ flux imaging (FDSS) (Protocol B), potentiation of the choline response
- Assay type: cell-based
- condition notes: Ca2+ assay as described in D.1; read-out: % Efficacy
Label rule, in plain words: Emax of 500% and up is criterion met, under 500% is criterion not met.

Completed entries (count: 10):
| given smiles | group |
| --- | --- |
| CC[C@H](O)Cn1nc(Nc2cc(OC)cc(C(F)(F)F)c2)cc1-c1ccnc(C)c1Cl | criterion met |
| Cc1cc(-c2cc(Nc3cc(F)c(F)c(F)c3)nn2CC(=O)NC2CC2)cc(C)n1 | criterion not met |
| Cc1cc(-c2cc(Nc3ccc(F)c(C(F)(F)F)c3)nn2CC(=O)NC2CC2)cc(C)n1 | criterion met |
| CC[C@H](O)Cn1nc(Nc2ccc(F)c(F)c2)cc1-c1ccnc(C)c1 | criterion met |
| CCNC(=O)Cn1nc(Nc2cccc(C(F)(F)F)c2)cc1-c1cc(C)nc(C)c1 | criterion met |
| Cc1cc(-c2cc(Nc3ccc(F)c(F)c3F)nn2CC(=O)NC2CC2)ccn1 | criterion met |
| Cc1cc(-c2cc(Nc3ccc(F)c(F)c3F)nn2CC(=O)NCC2CC2)ccn1 | criterion not met |
| CCNC(=O)Cn1nc(Nc2cc(F)c(F)c(F)c2)cc1-c1ccnc(C)c1 | criterion met |
| Cc1cc(-c2cc(Nc3ccc(F)c(C(F)(F)F)c3)nn2CC(=O)NC2CCC2)cc(C)n1 | criterion met |
| Cc1cc(-c2cc(Nc3cc(F)cc(Cl)c3)nn2C[C@H](C)O)ccn1 | criterion not met |

Exam item: decide whether the reported Emax for `Cc1ccnc(-c2cc(Nc3ccc(F)c(F)c3)nn2C[C@H](C)O)c1` is at least 500%.
criterion not met

Hello, I need to know if `Cc1cc(-c2cc(Nc3cccc(C(F)(F)F)c3)nn2CC(=O)NC2CC2)cc(C)n1` has measured Emax not below 500%. Thanks!
criterion met

Identify whether the reported Emax of the following compound is 500% or greater: `C[C@H](O)Cn1nc(Nc2cc(F)c(F)c(F)c2)cc1-c1ccc2c(c1)OCCO2`
criterion not met

---

- target under test: hα7-wt nAChR (Homo sapiens, UniProt P36544)
- method summary: Ca2+ flux imaging (FDSS) (Protocol B), potentiation of the choline response
- condition notes: Ca2+ assay as described in D.1; "<5" = activity did not reach a top plateau at maximal concentration
pEC50: −log10 of the molar value.
The label depends only on pEC50: 1 if it is at least 6, 0 if it is smaller.

Worked set:
| compound | group |
| --- | --- |
| Cc1cc(-c2cc(Nc3ccc(F)c(F)c3)nn2CC(=O)NC2CC2)cc(C)n1 [compound 160] | 1 |
| CCNC(=O)Cn1nc(Nc2ccc(F)c(C(F)(F)F)c2)cc1-c1ccc2c(c1)OCCO2 [compound 81] | 1 |
| CCNC(=O)Cn1nc(Nc2cccc(Cl)c2F)cc1-c1cc(C)nc(C)c1 [compound 154] | 1 |
| CN(C)C(=O)CCn1nc(Nc2cccc(F)c2)cc1-c1ccc2c(c1)OCCO2 [compound 82] | 1 |
| CNC(=O)Cn1nc(Nc2ccc(F)c(F)c2F)cc1-c1ccnc(C)c1 [compound 107] | 0 |

Here is the next item to consider.
Can COc1cc(Nc2cc(-c3cc(C)nc(C)c3)n(CC(=O)NC3CC3)n2)cc(C(F)(F)F)c1 [compound 138] be said to have pEC50 at or above 6?
1

Just for reference, patent US8779158B2 is where these values come from.
